TEST_SYSTEM: panel of 255 wild-type kinases (Homo sapiens, UniProt P51617)
Sequence (P51617 whole entry): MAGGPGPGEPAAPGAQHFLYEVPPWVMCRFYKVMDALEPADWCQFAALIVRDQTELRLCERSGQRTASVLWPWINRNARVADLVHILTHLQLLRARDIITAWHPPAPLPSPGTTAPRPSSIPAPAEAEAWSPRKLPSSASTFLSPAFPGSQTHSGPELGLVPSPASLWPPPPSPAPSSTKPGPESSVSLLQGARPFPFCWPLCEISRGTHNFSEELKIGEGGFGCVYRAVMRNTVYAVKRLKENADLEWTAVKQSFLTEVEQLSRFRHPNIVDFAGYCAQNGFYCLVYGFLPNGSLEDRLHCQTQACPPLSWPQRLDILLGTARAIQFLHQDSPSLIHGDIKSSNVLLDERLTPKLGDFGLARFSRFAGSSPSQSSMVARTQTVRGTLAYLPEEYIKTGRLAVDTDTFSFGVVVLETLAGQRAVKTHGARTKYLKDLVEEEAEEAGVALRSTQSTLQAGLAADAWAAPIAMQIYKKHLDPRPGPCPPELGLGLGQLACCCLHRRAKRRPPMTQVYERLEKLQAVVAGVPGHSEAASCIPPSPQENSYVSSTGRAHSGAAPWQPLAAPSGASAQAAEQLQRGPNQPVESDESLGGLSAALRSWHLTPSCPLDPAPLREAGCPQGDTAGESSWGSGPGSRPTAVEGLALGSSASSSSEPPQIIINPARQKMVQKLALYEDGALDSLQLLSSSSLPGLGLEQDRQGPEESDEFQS
EXPERIMENTAL_PROTOCOL: Kinase panel profiling at 1 µmol/L (MSA or IMAP), percentage inhibition
Format: biochemical
CONDITIONS_USED: kinase IRAK1; 1 µmol/L single concentration; read-out: %-inhibition at 1 µmol/L, IRAK1
Each entry below carries its recorded inhibition at 1 µM.
Could you write the number and then its unit?

MOL_SMILES | inhibition at 1 µM
FC(F)(F)c1ccc(CNc2ccc(Cc3c[nH]c4ncc(Cl)cc34)cn2)cn1 | -5%
C[C@H](Nc1ncnc2nc[nH]c12)c1cc2cccc(Cl)c2c(=O)n1-c1ccccc1 | -8%

Alright, here's another compound for you.
Lab note: CCc1nc(C(N)=O)c(Nc2ccc(N3CCC(N4CCN(C)CC4)CC3)c(OC)c2)nc1NC1CCOCC1 gave inhibition at 1 µM of 84%

---

TEST_SYSTEM: panel of 255 wild-type kinases (Homo sapiens, UniProt Q9H0K1)
Sequence (Q9H0K1 whole entry): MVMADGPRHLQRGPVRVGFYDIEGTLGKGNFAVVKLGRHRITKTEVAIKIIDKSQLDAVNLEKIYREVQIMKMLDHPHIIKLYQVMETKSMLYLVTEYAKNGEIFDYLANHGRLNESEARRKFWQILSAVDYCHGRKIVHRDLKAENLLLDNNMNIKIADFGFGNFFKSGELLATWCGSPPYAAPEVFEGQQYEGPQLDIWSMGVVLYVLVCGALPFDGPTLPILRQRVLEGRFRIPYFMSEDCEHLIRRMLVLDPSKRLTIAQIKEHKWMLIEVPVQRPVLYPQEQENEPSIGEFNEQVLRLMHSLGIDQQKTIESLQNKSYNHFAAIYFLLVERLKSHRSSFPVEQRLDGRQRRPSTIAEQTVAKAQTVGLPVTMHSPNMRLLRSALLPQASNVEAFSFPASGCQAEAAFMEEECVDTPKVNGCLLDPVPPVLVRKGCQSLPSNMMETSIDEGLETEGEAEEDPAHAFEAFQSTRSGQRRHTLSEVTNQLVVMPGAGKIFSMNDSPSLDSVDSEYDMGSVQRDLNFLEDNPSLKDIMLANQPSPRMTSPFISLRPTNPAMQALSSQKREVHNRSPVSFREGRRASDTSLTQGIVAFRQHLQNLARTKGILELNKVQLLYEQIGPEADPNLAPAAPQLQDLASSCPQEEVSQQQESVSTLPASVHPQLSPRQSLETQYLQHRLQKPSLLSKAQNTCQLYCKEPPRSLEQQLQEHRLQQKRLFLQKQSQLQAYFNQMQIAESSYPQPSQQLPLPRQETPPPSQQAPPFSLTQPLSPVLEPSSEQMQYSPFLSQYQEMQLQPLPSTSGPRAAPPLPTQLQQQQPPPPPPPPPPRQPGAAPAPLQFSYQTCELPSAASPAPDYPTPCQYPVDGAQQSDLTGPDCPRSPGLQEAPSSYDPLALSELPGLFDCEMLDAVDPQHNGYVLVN
EXPERIMENTAL_PROTOCOL: Kinase panel profiling at 1 µmol/L (MSA or IMAP), percentage inhibition
Type: biochemical
CONDITIONS_USED: kinase QIK; 1 µmol/L single concentration; read-out: %-inhibition at 1 µmol/L, QIK
Examples of molecules with documented inhibition at 1 µM follow.
The response must be a number in % with no trailing unit.

MOL_SMILES | inhibition at 1 µM [%]
C[C@H](Nc1ncnc2nc[nH]c12)c1cc2cccc(Cl)c2c(=O)n1-c1ccccc1 | 2.15

// sample O=C(Nc1cnn2ccc(N3CCC[C@@H]3c3cc(F)ccc3F)nc12)N1CC[C@H](O)C1 , its inhibition at 1 µM was -6.33

Entry CCc1nc(C(N)=O)c(Nc2ccc(N3CCC(N4CCN(C)CC4)CC3)c(OC)c2)nc1NC1CCOCC1 — recorded inhibition at 1 µM = 63

Lab note: measured inhibition at 1 µM of Cn1cc(-c2cc3c(N4CCN(c5ncc([C@@](C)(N)c6ccc(F)cc6)cn5)CC4)ncnn3c2)cn1 was 44

Entry CCn1c(=O)c(-c2cc(NC(=O)Nc3ccccc3)c(F)cc2Br)cc2cnc(NC)cc21 ; inhibition at 1 µM = 7

What the record says about Cn1cnc2c(F)c(Nc3ccc(Br)cc3F)c(C(=O)NOCCO)cc21 : inhibition at 1 µM is -4

Notebook: COC(=O)N[C@@H](C)CNc1nccc(-c2cn(C(C)C)nc2-c2cc(Cl)cc(NS(C)(=O)=O)c2F)n1 , inhibition at 1 µM read as -0.749

Field inhibition at 1 µM (entry COc1ccc(CN2C3CC2CN(c2ccc(-c4cc(OCC(C)(C)O)cn5ncc(C#N)c45)cn2)C3)cn1 ) reads -2.53

Kindly note the recorded inhibition at 1 µM for Cc1nc(NC(=O)N2CCC[C@H]2C(N)=O)sc1-c1ccnc(C(C)(C)C(F)(F)F)c1 , which is 2.48

The recorded inhibition at 1 µM for CN1CCN(c2ccc(C(=O)Nc3n[nH]c4ccc(Cc5cc(F)cc(F)c5)cc34)c(NC3CCOCC3)c2)CC1 is 6.5

inhibition at 1 µM recorded for this molecule, C[C@H]1Oc2cc(cnc2N)-c2c(nn(C)c2C#N)CN(C)C(=O)c2ccc(F)cc21 , is 2.53

Note to self: inhibition at 1 µM recorded for CCN1C(=O)N(c2c(F)c(OC)cc(OC)c2F)Cc2cnc3[nH]c(CN4CCOCC4)cc3c21 was 6.5

Query COc1cc2ncnc(Nc3ccc(F)c(Cl)c3)c2cc1NC(=O)/C=C/CN1CCCCC1 yields inhibition at 1 µM of 68

Looking up FC(F)(F)c1ccc(CNc2ccc(Cc3c[nH]c4ncc(Cl)cc34)cn2)cn1 , I found its inhibition at 1 µM recorded as 11

The recorded inhibition at 1 µM for entry C=CC(=O)N1CCC([C@@H]2CCNc3c(C(N)=O)c(-c4ccc(Oc5ccccc5)cc4)nn32)CC1 equals -4

Quick note, inhibition at 1 µM for CO[C@]1(C(=O)N[C@@H](C)c2ccc(-n3cc(F)cn3)nc2)CC[C@H](c2nc(C)cc(Nc3cc(C)[nH]n3)n2)CC1 landed at -2.55
